Molecular target: hTGR5 (Homo sapiens, UniProt Q8TDU6)
Sequence (Q8TDU6 1-330): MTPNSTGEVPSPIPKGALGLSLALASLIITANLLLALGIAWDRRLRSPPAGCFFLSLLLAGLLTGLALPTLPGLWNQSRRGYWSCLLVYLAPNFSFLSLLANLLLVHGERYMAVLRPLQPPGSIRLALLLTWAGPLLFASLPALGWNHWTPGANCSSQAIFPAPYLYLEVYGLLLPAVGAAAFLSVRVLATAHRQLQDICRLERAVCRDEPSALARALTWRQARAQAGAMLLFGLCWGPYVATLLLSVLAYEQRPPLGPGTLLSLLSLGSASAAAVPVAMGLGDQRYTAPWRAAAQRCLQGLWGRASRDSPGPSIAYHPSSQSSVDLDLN
Test: TGR5/CRE Luciferase Assay (hTGR5)
Settings: HEK 293 cells co-transfected with pCMV tag4b-TGR5h and pCRE TA-Luciferase; overnight incubation
Description: TGR5/CRE Luciferase Assay In the following Tables TGR5 activation by compounds of the invention and subsequent increase in intracellular cAMP were evaluated using a luciferase reporter gene assay. […] Luminescence was read with a Mithras plate reader (Berthold) or a Victor3™ V1420 (Perkin Elmer). […]
Consider the reported EC50 of an entry and match it to a band in low value (below 200 nM), medium value (200 nM to below 1000 nM), high value (1000 nM or more)

Study these solved cases before continuing.
O=C1CC(c2ccc(Cl)cc2)C(C(=O)NCc2ccccc2)=CN1 (stereo not shown) [Compound 25] | high value
COc1ccccc1COC(=O)C1=C(C)N(C[C@H]2CCCO2)C(=O)C[C@H]1c1ccc(Cl)cc1 (racemic) [Compound 67] | low value
COCCN1C(=O)CC(c2ccc(Cl)cc2)C(C(=O)OCc2ccc(C)cc2)=C1C (stereo not shown) [Example 100] | medium value
COc1ccccc1COC(=O)C1=C(C)N(C[C@@H]2CCCO2)C(=O)C[C@@H]1c1ccc(Cl)nc1 [Example 162] | medium value
COc1ccc(COC(=O)C2=C(C)N(C)C(=O)CC2c2ccc(Cl)cc2)cc1OC (stereo not shown) [Example 83] | high value

Q: Could you tell me which band COc1ccccc1[C@H](C)OC(=O)C1=C(C)N(C[C@H]2CCCO2)C(=O)C[C@H]1c1ccc(Cl)cc1 [Example 138] belongs to?
Result: medium value

Q: For this molecule, which bin applies? CC1=C(C(=O)OCc2ccccc2)C(c2ccc(Cl)cc2F)CC(=O)N1 (stereo not shown) [Compound 15]
Result: high value

Q: Band for the recorded EC50 of COCCOc1ccc(COC(=O)C2=C(C)N(C[C@H]3CCCO3)C(=O)C[C@H]2c2ccc(Cl)cc2)cc1 (racemic) [Example 136] ?
Result: low value

Q: Class for COCCN1C(=O)CC(c2ccc(Cl)cc2)C(C(=O)OCCc2ccccc2)=C1C (stereo not shown) [Example 110] ?
Result: high value

Q: Lab note: sort COCCN1C(=O)CC(c2ccc(Cl)cc2)C(C(=O)OCc2ccc(OCCCN(C)C)cc2)=C1C (stereo not shown) [Example 116] into the matching EC50 band.
Result: high value
